# Tested on: Breast cancer cell lines
# Procedure text: 6-day growth-death assay (Cell Titer Glo)
# Particulars: Homo sapiens, 144 h, read-out: median gIC50, 6-day; non-TNBC cell lines
# Description: Cell lines representing triple negative breast cancer (TNBC) are shown in orange; other subtypes are in blue. The growth of all cell lines was evaluated over time across a wide range of seeding densities to identify conditions that permitted proliferation throughout the entire 6-day assay. […] A replicate plate of cells was harvested at the time of compound addition to quantify the starting number of cells (To). […]
pIC50: −log10 of the molar value.

# Test smiles, pIC50
rows = [
    ("CCOCC1(COCC)CCC(c2n[nH]cc2CN(C)CCNC)CC1", 5.17),
]

* * *

# System: ACHN
# Procedure text: 6-day growth-death assay (Cell Titer Glo)
# Type: cell-based
# Particulars: Homo sapiens, 144 h, read-out: gIC50
pIC50: −log10 of the molar value.

# Compound, pIC50
measured = [
    ("CCOCC1(COCC)CCC(c2n[nH]cc2CN(C)CCNC)CC1 [Compound A]", 7.00),
]

* * *

# Assay system: PRMT6 (Homo sapiens)
# Sequence (Q96LA8 whole entry): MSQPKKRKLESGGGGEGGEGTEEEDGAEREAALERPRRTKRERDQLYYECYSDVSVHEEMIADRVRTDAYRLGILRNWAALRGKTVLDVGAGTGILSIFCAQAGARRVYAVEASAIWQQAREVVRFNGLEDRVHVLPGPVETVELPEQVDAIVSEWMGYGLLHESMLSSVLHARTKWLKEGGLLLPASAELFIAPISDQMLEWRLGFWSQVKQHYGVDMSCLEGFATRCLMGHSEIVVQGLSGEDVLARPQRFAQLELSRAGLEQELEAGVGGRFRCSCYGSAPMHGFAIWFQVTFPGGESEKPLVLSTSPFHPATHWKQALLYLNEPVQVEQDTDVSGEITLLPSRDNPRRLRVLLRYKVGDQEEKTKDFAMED

# Molecule, Assay system, IC50
measured = [
    ("CCOCC1(COCC)CCC(c2n[nH]cc2CN(C)CCNC)CC1 [Compound A]", "PRMT6 (Homo sapiens)", "3 to 5 nM"),
]

* * *

# System: NSC-LC cell lines
# Procedure text: 6-day growth-death assay (Cell Titer Glo)
# Format: cell-based, human
# Particulars: Homo sapiens, read-out: Median gIC50, Lung (NSCLC); MTAP High

# Molecule, IC50 / µM
data = [
    ("CCOCC1(COCC)CCC(c2n[nH]cc2CN(C)CCNC)CC1 [Compound A]", 5),
]

* * *

# System: Melanoma cell lines
# Procedure text: 6-day growth-death assay (Cell Titer Glo)
# Particulars: Homo sapiens, read-out: Median gIC50, Melanoma; MTAP Low
pIC50: −log10 of the molar value.

# Test smiles, pIC50
records = [
    ("CCOCC1(COCC)CCC(c2n[nH]cc2CN(C)CCNC)CC1", 6.52),
]

* * *

# Test system: SK-MEL-5
# Procedure text: 6-day growth-death assay (Cell Titer Glo)
# Assay type: cell-based
# Particulars: Homo sapiens, SK-MEL-5, 144 h, read-out: gIC50

# Test smiles, IC50
rows = [
    ("CCOCC1(COCC)CCC(c2n[nH]cc2CN(C)CCNC)CC1", "90 nM"),
]

* * *

# System: Lymphoma cell lines
# Procedure text: 6-day growth-death assay (Cell Titer Glo)
# Type: cell-based, human
# Particulars: Homo sapiens, read-out: Median gIC50, Lymphoma; MTAP Low
Readout kind: IC50 (µM)

# Test smiles, Assay system, Meas value
records = [
    ("CCOCC1(COCC)CCC(c2n[nH]cc2CN(C)CCNC)CC1", "Lymphoma cell lines", 0.1),
]

* * *

# Tested on: Bladder cancer cell lines
# Procedure text: 6-day growth-death assay (Cell Titer Glo)
# Type: cell-based, human
# Particulars: Homo sapiens, read-out: Median gIC50, Bladder; MTAP Low

# Test smiles, Unit, IC50
records = [
    ("CCOCC1(COCC)CCC(c2n[nH]cc2CN(C)CCNC)CC1", "µM", 1.6),
]

* * *

# System: Breast cancer cell lines
# Procedure text: 6-day growth-death assay (Cell Titer Glo)
# Particulars: Homo sapiens, read-out: Median gIC50, Breast; MTAP Low
Readout kind: IC50 (µM)

# Test smiles, Meas value
data = [
    ("CCOCC1(COCC)CCC(c2n[nH]cc2CN(C)CCNC)CC1", 10.2),
]
